The following molecules are shown together with reported IC50 values.
target or test system: Human IDO1 (Homo sapiens)
assay name: IDO Kynurenine Assay with Human IDO1/HEK293 Cells
cond: read-out: HEK human IDO-1 (IC50)
Numeric only. Scale: nM

Record excerpt, results attached:
[[record]]
molecule = "CC(C)CN(c1ccc(-c2cc(F)ccc2C(=O)O)cc1NC(=O)Nc1ccc2nn(C)cc2c1)C1CCCCC1"
numeric_value = 110

[[record]]
molecule = "CCOc1ccc(NC(=O)Nc2cc(-c3ccccc3-c3nnn[nH]3)c(F)cc2N(CC(C)C)C2CCC(F)(F)CC2)cc1"
numeric_value = 3.3


Print Human IDO1 (Homo sapiens) IC50 for Cc1ccc(NC(=O)Nc2cc(-c3cc(F)ccc3C(=O)O)cc(Cl)c2N(CC(C)C)CC(C)C)cc1 .
6.31

Print Human IDO1 (Homo sapiens) IC50 for C=CC(c1ccccc1)c1cc(-c2ccccc2-c2nnn[nH]2)cc(NC(=O)Nc2ccc(C)cc2)c1NCC(C)C (stereo not shown) .
350

Print Human IDO1 (Homo sapiens) IC50 for CC(C)CN(c1cc(F)c(-c2cc(F)ccc2C(=O)O)cc1NC(=O)Nc1ccc2c(c1)OCO2)C1CCC(F)(F)CC1 .
20

Print Human IDO1 (Homo sapiens) IC50 for Cc1cnc(NC(=O)Nc2cc(-c3ccccc3-c3nnn[nH]3)ccc2N(CC(C)C)CC(C)C)cn1 .
270

Print Human IDO1 (Homo sapiens) IC50 for Cc1ccc(NC(=O)Nc2cc(-c3cc(Cl)ccc3C(=O)O)ccc2N(CC(C)C)CC(C)C)cc1 .
120

* * *

target or test system: IDO (Homo sapiens, UniProt P14902)
Sequence (P14902 whole entry): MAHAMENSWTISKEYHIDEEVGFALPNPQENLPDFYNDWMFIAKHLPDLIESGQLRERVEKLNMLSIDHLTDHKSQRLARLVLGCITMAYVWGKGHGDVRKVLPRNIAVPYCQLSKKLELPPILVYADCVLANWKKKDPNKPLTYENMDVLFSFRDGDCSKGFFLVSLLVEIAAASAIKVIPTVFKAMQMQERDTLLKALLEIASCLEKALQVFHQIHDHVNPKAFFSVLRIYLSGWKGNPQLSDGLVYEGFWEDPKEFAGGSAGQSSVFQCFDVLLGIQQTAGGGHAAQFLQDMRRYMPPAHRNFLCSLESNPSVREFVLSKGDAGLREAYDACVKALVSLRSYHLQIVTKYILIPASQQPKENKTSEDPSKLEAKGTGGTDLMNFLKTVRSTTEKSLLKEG
assay name: LLE_IDO_ABS_DR (IDO assay)
The following molecules are shown together with reported log10 IC50 values.
Note: values are log10 of IC50 expressed in nM.

Record excerpt, results attached:
[[record]]
molecule = "CC(C)CN(CC(C)C)c1ccc(-c2ccccc2-c2nnn[nH]2)cc1NC(=O)NC(C)C"
target_or_test_system = "IDO (Homo sapiens, UniProt P14902)"
numeric_value = 3.09

[[record]]
molecule = "Cc1ccc(NC(=O)Nc2cc(-c3ccccc3C(=O)O)ccc2N(CC(C)C)C2CCCC2)cc1"
target_or_test_system = "IDO (Homo sapiens, UniProt P14902)"
numeric_value = 1.00

[[record]]
molecule = "Cc1ccc(NC(=O)Nc2cc(-c3ccccc3-c3nnn[nH]3)ccc2N(CC(C)C)CC2CC(F)(F)C2)cc1"
target_or_test_system = "IDO (Homo sapiens, UniProt P14902)"
numeric_value = 2.04


# return recorded log10 IC50 for input Cc1ccc(NC(=O)Nc2cc(-c3ccccc3-c3nnn[nH]3)ccc2N(Cc2ccccc2)CC(C)C)cc1 [Example 289]
3.08

# return recorded log10 IC50 for input CC(C)CN(CCC(C)C(F)(F)F)c1ccc(-c2ccccc2-c2nnn[nH]2)cc1NC(=O)Nc1ccccc1F (stereo not shown)
0.65

# return recorded log10 IC50 for input Cc1ccc(NC(=O)Nc2cc(-c3cc(F)ccc3C(=O)O)ccc2N(CC(C)C)C2CCCCC2)cc1
0.71

# return recorded log10 IC50 for input O=C(Nc1cc(-c2ccccc2-c2nnn[nH]2)ccc1N(CCc1ccccc1)CCC(F)(F)F)Nc1ccccc1C(F)(F)F
2.48

* * *

target or test system: IDO (Homo sapiens, UniProt P14902)
assay name: Kynurenine assay in Hela cells stimulated with IFN-γ to express IDO
Assay type: cell-based
Design: endogenous in cells; host or cells: HeLa (ATCC CCL-2), stimulated with human recombinant IFN-gamma
cond: 20 h, read-out: Hela Kyurenine (IC50)
Protocol: IFNg (R&D, 28-IF-100)—resuspend at 10 ug/mL in PBS with 0.1% BSA 30% TCA Ehrlich reagent (2% w/v p-dimethylaminobenzaldehyde in glacial acetic acid) Cell Titer 96 Aqueous Non-Radioactive Cell Proliferation Assay, MTS (Promega, Cat # G5430) Cell Lines and Culture Conditions […] Hela cells were seeded on 96-well plates (40,000 cells per well) and allowed to adhere for 5-6 hours. […] Absorbance at 490 nm was read using Spectra Max 384 (Molecular Devices).
quantity kind: pIC50
When answering, recall that pIC50 equals minus log10 of the concentration in mol/L, and write that number alone.

Record excerpt, results attached:
[[record]]
test_smiles = "COC(CN(C)c1ccc(-c2ccccc2C(=O)O)cc1NC(=O)Nc1ccc(C)cc1)OC"
numeric_value = 7.10

[[record]]
test_smiles = "CCN(c1ccc(-c2ccccc2-c2nnn[nH]2)cc1NC(=O)Nc1ccccc1F)C1CCCCC1"
numeric_value = 9.11

[[record]]
test_smiles = "CN(c1ccc(-c2ccccc2-c2nnn[nH]2)cc1NC(=O)Nc1ccc(C(F)(F)F)cc1)C1CCCCC1"
numeric_value = 7.70

[[record]]
test_smiles = "CN(c1ccc(-c2ccccc2C(=O)O)cc1NC(=O)Nc1ccccc1Cl)C1CCCCC1"
numeric_value = 6.92

[[record]]
test_smiles = "CN(c1ccc(-c2ccccc2-c2nnn[nH]2)cc1NC(=O)Nc1ccccc1Cl)C1CCCCC1"
numeric_value = 8.00


Continue with the next compound.
# return recorded pIC50 for input COC(CN(C)c1ccc(-c2ccccc2-c2nnn[nH]2)cc1NC(=O)Nc1ccc(C)cc1)OC
6.96
